Exercise: state measured IC50 for each of the molecules provided.
molecular target: human neutrophil elastase (Homo sapiens); test: In vitro Assays of Human Neutrophil Elastase; conditions: purified human neutrophil elastase 11.8 nM, pH 8.6, 15 min incubation at 30° C., 0.6 mM MeO-succinyl-alanyl-alanyl-prolyl-valyl-p-nitroanilide, 405 nm
Where a name gives a salt, the structure may show the parent alone.
Answers are plain numbers, in nM.

Example entries and their recorded answers appear below.
[[record]]
molecule = "CCC[C@H]1C(=O)N(S(C)(=O)=O)[C@H]2CN(C(=O)c3cc(CN(C)C)on3)C[C@H]12 (relative stereo) [Example 7, hydrochloride]"
units_symbol = "nM"
readout_value = 399

[[record]]
molecule = "CCC[C@H]1C(=O)N(S(C)(=O)=O)[C@H]2CN(C(=O)C=CCN3CCCCC3)C[C@H]12 (relative stereo) [Example 1, hydrochloride]"
units_symbol = "nM"
readout_value = 227

[[record]]
molecule = "CCC[C@H]1C(=O)N(S(C)(=O)=O)[C@H]2CN(C(=O)c3ccc(CN4CCCCC4)cc3)C[C@H]12 (relative stereo) [Example 4, hydrochloride]"
units_symbol = "nM"
readout_value = 296


Now turn to the next molecule.
IN: Item: CCC[C@H]1C(=O)N(S(C)(=O)=O)[C@H]2CN(S(=O)(=O)c3ccc(NC(C)=O)cc3)C[C@H]12 (relative stereo) [Example 3] Test system: human neutrophil elastase (Homo sapiens) Read-out: IC50 Value: ?
OUT: 229

* * *

Molecular target: human neutrophil elastase (Homo sapiens, UniProt P08246)
Sequence (P08246 30-247 limits assumed): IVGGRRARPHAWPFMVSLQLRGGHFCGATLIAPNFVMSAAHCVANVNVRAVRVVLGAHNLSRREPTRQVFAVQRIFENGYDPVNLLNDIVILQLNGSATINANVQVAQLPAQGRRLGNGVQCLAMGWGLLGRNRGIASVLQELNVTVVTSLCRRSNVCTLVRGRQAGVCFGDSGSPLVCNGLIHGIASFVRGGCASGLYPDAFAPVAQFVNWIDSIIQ
Assay: In vitro Assays of Human Neutrophil Elastase
Conditions: purified human neutrophil elastase 11.8 nM, pH 8.6, 15 min incubation at 30° C., 0.6 mM MeO-succinyl-alanyl-alanyl-prolyl-valyl-p-nitroanilide, 405 nm
Counter-ions that a name gives are not always drawn.
quantity: pIC50
Answers are plain numbers, as −log10 of the molar value.

Example entries and their recorded answers appear below.
[[record]]
compound = "CCC[C@H]1C(=O)N(S(C)(=O)=O)[C@H]2CN(C(=O)c3ccc(CN4CCOCC4)cc3)C[C@H]12 (relative stereo) [Example 5, hydrochloride]"
readout_value = 6.65

[[record]]
compound = "CCC[C@H]1C(=O)N(S(C)(=O)=O)[C@H]2CN(C(=O)c3cc(CN4CCOCC4)on3)C[C@H]12 (relative stereo) [Example 6, hydrochloride]"
readout_value = 6.84


Now turn to the next compound.
IN: Item: CCC[C@H]1C(=O)N(S(C)(=O)=O)[C@H]2CN(C(=O)CCCN3CCCCC3)C[C@H]12 (relative stereo) Test system: human neutrophil elastase (Homo sapiens, UniProt P08246) Read-out: pIC50 Value: ?
OUT: 6.05
